Value source: the supplement of paper PMC4466140

Biological target: AgSla1-D3
Test: SPOT peptide array binding signal intensity (averaged, normalized) (arbitrary units (background-subtracted, floor 0; scale differs between SH3 domains)); higher = stronger binding of the SH3 domain to the peptide
Measured SPOT peptide array binding signal intensity values are reported for all entries that follow.
Keep it simple and answer with nothing but the number.

Study these solved cases before continuing.
{"binder": "FPGKKSPRLPHRNKK", "recorded result": 13.5}
{"binder": "ALRRRLPVTRSKINW", "recorded result": 5.5}
{"binder": "QRIRKIPGIPLMSVG", "recorded result": 11.5}
{"binder": "EVTPKVPERPSRRKT", "recorded result": 7.75}
{"binder": "VLRFLGFPLPIFEKG", "recorded result": 2}

Quick one: SPOT peptide array binding signal intensity of SGVRLPAPPPPPRRG ?
61
